Experiment: qHTS of pediatric cancer cell lines to identify multiple opportunities for drug repurposing: Primary screen for TC32 cells (AID 1347089); note: nearly all actives have a fitted effect of over 60% in size
Conditions: TC32 Ewing sarcoma viability, CellTiter-Glo luminescence, 48 h; series mostly up to 45.8 µM
Protocol: Drug repurposing or repositioning has been offered as a strategy for drug development in oncology programs. […] [1] Shen, M et al. Quantitative high-throughput phenotypic screening of pediatric cancer cell lines identifies multiple opportunities for drug repurposing. […] Cells were assayed in growth media at a density of 500-1,000 cells/well. […] After a 15min incubation at room temperature, samples were analyzed for luminescence intensity using a ViewLux High-throughput CCD imager equipped with clear filters.
Results filed as inconclusive are left out. The source made the active and inactive calls. Calls come from the whole dose curve; as a rule, active = well fitted cell-killing curve with a large enough effect; inconclusive = small, poorly fitted or top-dose-only effect; inactive = flat fitted curve, though single readings scatter.
Answer with one of the outcomes class 1 = active, class 0 = inactive

# example entries with known answers
C=CC(=O)Nc1cccc(Oc2nc(Nc3ccc(N4CCN(C)CC4)cc3)ncc2Cl)c1: class 1
COc1cc(C(C)C)c2c(c1)S(=O)(=O)N(COc1cc(=O)n3cccc(OCCN4CCCCC4)c3n1)C2=O: class 0
Nc1cc(C(F)(F)F)c(-c2cc(N3CCOCC3)nc(N3CCOCC3)n2)cn1: class 1
CCOc1cc2ncc(C#N)c(Nc3ccc(F)c(Cl)c3)c2cc1NC(=O)C=CCN(C)C: class 1
Nc1ccn([C@@H]2O[C@H](CO)[C@H](O)C2(F)F)c(=O)n1: class 1

Which outcome was entered for the molecule Cc1nc2cnc3ccc(C#Cc4cccnc4)cc3c2n1-c1ccc(C(C)(C)C#N)cc1 in this test?
class 1

// param item: CNC(=O)c1ccc(-c2cnc3ncc(Cc4ccc5ncccc5c4)n3n2)cc1F ; yields the recorded call
class 0

Fill in: this test's call for Cc1ccc(CN2CCNCC2)cc1NC(=O)CNc1ccc(F)c(F)c1 is ___
class 0

Can you look up the reported call for CC(=O)OCCN1C(=O)c2c(C)nc3ccc(S(=O)(=O)N4CCOCC4)cc3c2C1=O for me?
class 0

Could you check what this test reported for Nc1ccc(S(=O)(=O)Nc2ncccn2)cc1 ?
class 0
